Target: GPR39 (Homo sapiens, UniProt O43194)
Sequence (O43194 whole entry): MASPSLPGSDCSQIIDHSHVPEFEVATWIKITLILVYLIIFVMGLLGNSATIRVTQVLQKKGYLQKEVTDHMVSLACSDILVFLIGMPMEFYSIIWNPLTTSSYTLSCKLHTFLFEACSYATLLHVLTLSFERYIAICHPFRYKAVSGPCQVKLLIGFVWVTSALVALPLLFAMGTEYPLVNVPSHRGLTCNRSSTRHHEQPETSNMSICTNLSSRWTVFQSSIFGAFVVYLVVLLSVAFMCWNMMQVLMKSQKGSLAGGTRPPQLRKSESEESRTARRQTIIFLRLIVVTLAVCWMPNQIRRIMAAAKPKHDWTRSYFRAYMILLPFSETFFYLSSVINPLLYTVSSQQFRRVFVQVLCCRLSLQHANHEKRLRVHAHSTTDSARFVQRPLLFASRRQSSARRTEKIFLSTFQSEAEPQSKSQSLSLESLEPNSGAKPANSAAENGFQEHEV
Test: luciferase assay system (SRE luciferase reporter gene) for GPR39 in CV-1 cells
Conditions: CV-1 cells, GPR39 and SRE luciferase adenovirus, treated 6 hours, luminometer
Square brackets hold non-standard residues; d marks the D form. Peptide text beside a SMILES is read from it. * marks the point of attachment. Tyr(3,5-(NO2)2) = N[C@@H](Cc1cc([N+](=O)[O-])c(O)c([N+](=O)[O-])c1)C(=O)O; His(Trt) = N[C@@H](Cc1cn(C(c2ccccc2)(c2ccccc2)c2ccccc2)cn1)C(=O)O; His(τ-CHPh2) = N[C@@H](Cc1cn(C(c2ccccc2)c2ccccc2)cn1)C(=O)O; dPhe(4-Me) = Cc1ccc(C[C@@H](N)C(=O)O)cc1; Dmt = Cc1cc(O)cc(C)c1C[C@H](N)C(=O)O; Octanoyl = CCCCCCCC(=O)*
// ECmax (-fold induction over basal) lookup, one value per entry
recorded.metric: ECmax (-fold induction over basal)

[
  {
    "compound": "CCCCCCCC(=O)NCCCC[C@H](NC(=O)[C@@H](N)Cc1cncn1CCCC1CCCCC1)C(=O)N[C@@H](Cc1ccccc1)C(=O)N[C@@H](Cc1ccc(O)cc1)C(=O)O",
    "experimental.value": "16 ± 2.2 -fold induction over basal"
  },
  {
    "compound": "CCCCCCCC(=O)NCCCC[C@H](NC(=O)[C@@H](N)Cc1c[n+](CCCc2ccccc2)cn1CCCc1ccccc1)C(=O)N[C@@H](Cc1ccccc1)C(=O)N[C@@H](Cc1ccc(O)cc1)C(=O)O",
    "experimental.value": "15 ± 2.12 -fold induction over basal"
  },
  {
    "compound": "CCCCCCCC(=O)NCCCC[C@H](NC(=O)[C@@H](N)Cc1cn(C(c2ccccc2)c2ccccc2)cn1)C(=O)N[C@H](Cc1ccc(C)cc1)C(=O)N[C@@H](Cc1c(C)cc(O)cc1C)C(=O)O [HKFY-36] (H-[His(τ-CHPh2)]K(Octanoyl)[dPhe(4-Me)][Dmt]-OH)",
    "experimental.value": "9.9 ± 0.28 -fold induction over basal"
  },
  {
    "compound": "CCCCCCCC(=O)NCCCC[C@H](NC(=O)[C@@H](N)Cc1c[n+](CCCC2CCCCC2)cn1CCCC1CCCCC1)C(=O)N[C@@H](Cc1ccccc1)C(=O)N[C@@H](Cc1ccc(O)cc1)C(=O)O",
    "experimental.value": "17.3 ± 1.22 -fold induction over basal"
  },
  {
    "compound": "CCCCCCCC(=O)NCCCC[C@H](NC(=O)[C@@H](N)Cc1cn(C(c2ccccc2)c2ccccc2)cn1)C(=O)N[C@H](Cc1ccc(C)cc1)C(=O)N[C@@H](Cc1cc([N+](=O)[O-])c(O)c([N+](=O)[O-])c1)C(=O)O [HKFY-69] (H-[His(τ-CHPh2)]K(Octanoyl)[dPhe(4-Me)][Tyr(3,5-(NO2)2)]-OH)",
    "experimental.value": "12.2 ± 2.5 -fold induction over basal"
  },
  {
    "compound": "CCCCCCCC(=O)NCCCC[C@H](NC(=O)[C@@H](N)Cc1cn(C(c2ccccc2)(c2ccccc2)c2ccccc2)cn1)C(=O)N[C@@H](Cc1ccccc1)C(=O)N[C@@H](Cc1ccc(O)cc1)C(=O)N[C@@H](CO)C(=O)N[C@@H](CCC(N)=O)C(=O)N[C@@H](CC(=O)O)C(=O)NCC(=O)N[C@@H](C)C(=O)N[C@@H](CCCNC(=N)N)C(=O)N[C@@H](Cc1ccccc1)C(N)=O [HKFY-41] (H-[His(Trt)]K(Octanoyl)FYSQDGARF-NH2)",
    "experimental.value": "12.2 ± 0.02 -fold induction over basal"
  }
]
